- Test system: Trichophyton rubrum
- Protocol: Antifungal activity in vitro, resazurin growth inhibition: Trichophyton rubrum (B68183)
- Type: cell-based
The class of a record is decided solely by its measured Inf. C: Trichophyton rubrum B68183, pIC50; consult low: < 5; middle: ≥ 5 and < 7; high: ≥ 7

# count of solved cases: 5
Molecule | Measured Target | Label
Cc1cccc2c1CNC(c1ccc(C(F)(F)F)nc1)c1cccn1-2.Cl (racemic) [Compound 18] | Trichophyton rubrum | middle
Cl.Fc1cccc2c1CNC(c1ccc(C(F)(F)F)nc1)c1cccn1-2 (racemic) [Compound 17] | Trichophyton rubrum | low
c1ccc2c(c1)CN=C(c1cc3ccccc3o1)c1cccn1-2 [Compound 115] | Trichophyton rubrum | high
Cl.FC(F)(F)c1ccc(C2NCc3c(Cl)cccc3-n3cccc32)cn1 (racemic) [Compound 16] | Trichophyton rubrum | middle
Cc1cccc2c1CN=C(c1cnc(C(F)(F)F)nc1)c1cccn1-2 [Compound 103] | Trichophyton rubrum | low

Shifting focus to the molecule that follows.
# bin lookup: classify Fc1ccc2oc(C3=NCc4ccc(Cl)cc4-n4cccc43)cc2c1 [Compound 124] by its Inf. C: Trichophyton rubrum B68183, pIC50
middle

* * *

Overview of reported Inf. A: Sporothrix schenkii B62482, pIC50 across a group of compounds:
- Tested on: Sporothrix schenkii
- Protocol: Antifungal activity in vitro, resazurin growth inhibition: Sporothrix schenkii (B62482)
- Format: cell-based

Compound | Endpoint Result
Fc1cccc2c1CN=C(c1ccc3sc(C(F)(F)F)nc3c1)c1cccn1-2 | <4.19

Identify measured Inf. A: Sporothrix schenkii B62482, pIC50 corresponding to "CCc1cc(C2=NCc3c(Cl)cccc3-n3cccc32)on1"
<4.19

Identify measured Inf. A: Sporothrix schenkii B62482, pIC50 corresponding to "CCc1cnc(C2=NCc3c(Cl)cc(Cl)cc3-n3cccc32)s1"
<4.19

Identify measured Inf. A: Sporothrix schenkii B62482, pIC50 corresponding to CCc1ccc(C2NCc3c(Cl)cccc3-n3cccc32)nc1.Cl (racemic)
<4.19

Identify measured Inf. A: Sporothrix schenkii B62482, pIC50 corresponding to "Fc1cccc2cc(C3=NCc4c(Cl)cc(Cl)cc4-n4cccc43)oc12"
<4.19

* * *

- Test system: Scedosporium prolificans
- Protocol: Antifungal activity in vitro, resazurin growth inhibition: Scedosporium prolificans (IHEM21157)
- Format: cell-based
Overview of reported Inf. I: Scedosporium prolificans IHEM21157, pIC50 across a group of compounds:
Quick one: just the number, no unit, thanks!

Smi | Endpoint Result
c1ccc2c(c1)CN=C(c1cc3ccccc3o1)c1cccn1-2 | 5.98
Fc1ccc2oc(C3=NCc4c(Cl)cc(Cl)cc4-n4cccc43)cc2c1 | 6.05
Clc1ccc2oc(C3=NCc4c(Cl)cccc4-n4cccc43)cc2c1 | 6.15

The record that follows has no Inf. I: Scedosporium prolificans IHEM21157, pIC50 shown yet.
Identify measured Inf. I: Scedosporium prolificans IHEM21157, pIC50 corresponding to "Clc1cccc2c1CN=C(c1ccc3ccoc3c1)c1cccn1-2"
5.93

* * *

Overview of reported Inf. G: Trichophyton mentagrophytes B70554, pIC50 across a group of compounds:
- Test system: Trichophyton mentagrophytes
- Protocol: Antifungal activity in vitro, resazurin growth inhibition: Trichophyton mentagrophytes (B70554)
- Format: cell-based
- Protocol: The standard susceptibility screen is performed in 96-well plates (U-bottom, Greiner Bio-One). Serial dilutions (2-fold or 4-fold) of 20 mM compound stock solutions are made in 100% DMSO, followed by an intermediate dilution step in water. These serial dilutions (10 μl) are then spotted onto test-plates that can be stored in the dark at 4° C. for a maximum period of 2 weeks. An adequate broad dose-range is included with 64 μM as the highest in-test concentration. […]

Enter recorded Inf. G: Trichophyton mentagrophytes B70554, pIC50 with Trichophyton mentagrophytes for "Cc1ccc2oc(C3=NCc4c(Cl)cc(Cl)cc4-n4cccc43)cc2c1" here.
<4.19

Enter recorded Inf. G: Trichophyton mentagrophytes B70554, pIC50 with Trichophyton mentagrophytes for COc1ccc2oc(C3NCc4ccc(Cl)cc4-n4cccc43)cc2c1.Cl (racemic) here.
<4.19

Enter recorded Inf. G: Trichophyton mentagrophytes B70554, pIC50 with Trichophyton mentagrophytes for "Clc1ccc2c(c1)-n1cccc1C(c1ccncc1)=NC2" here.
<4

Enter recorded Inf. G: Trichophyton mentagrophytes B70554, pIC50 with Trichophyton mentagrophytes for "Fc1cc(F)c2c(c1)-n1cccc1C(c1ccc3occ(Cl)c3c1)=NC2" here.
<4.19

Enter recorded Inf. G: Trichophyton mentagrophytes B70554, pIC50 with Trichophyton mentagrophytes for "Cc1ccc2oc(C3=NCc4ccc(Cl)cc4-n4cccc43)cc2c1" here.
<4.19

Hello, the source for this data is patent US9493468B2, in case you need it.
